# Ki per entry
target under test: DCN1 (Homo sapiens, UniProt Q96GG9)
Sequence (Q96GG9 58-259): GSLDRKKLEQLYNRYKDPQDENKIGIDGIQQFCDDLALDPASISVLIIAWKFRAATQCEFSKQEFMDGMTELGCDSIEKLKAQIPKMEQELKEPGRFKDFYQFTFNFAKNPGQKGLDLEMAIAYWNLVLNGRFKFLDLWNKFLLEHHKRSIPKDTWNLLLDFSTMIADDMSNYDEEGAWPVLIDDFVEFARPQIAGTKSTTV
Where a SMILES comes first, the peptide text is derived from it. [ ]: non-standard residue; d: D form. Phe(3,5-F2) = N[C@@H](Cc1cc(F)cc(F)c1)C(=O)O
Express your answer in µM, writing the number without its unit.

### Prompt # input molecule: CC[C@H](C)[C@@H](CN)NC(=O)[C@H](Cc1nc2ccc(C(C)C)cc2s1)NC=O [compound 31] ; wanted: its Ki
### Response 2.24

New cases:
### Prompt Any idea what its Ki is? The molecule is CC[C@H](C)[C@H](NC(=O)[C@H](Cc1cc(F)cc(F)c1)NC(C)=O)C(=O)N[C@@H](CCCCN)C(=O)N[C@@H](CC(C)C)C(N)=O [compound 20] (Ac-[Phe(3,5-F2)]IKL-NH2)
### Response 82

====

experimental protocol: Equilibrium aqueous solubility, small-scale shake-flask method
condition info: phosphate buffer, pH 7.4, aqueous buffer, thermodynamic from solid
Below is a list of entries, each paired with its recorded solubility at 24 h value.
Write the answer as a number in µM, unit excluded.

### Prompt Reported solubility at 24 h, molecule CCC(=O)N[C@@H](Cc1nc2ccc(C(C)C)cc2s1)C(=O)N[C@H](CN)C1CCCCC1 : ____
### Response 1910

Continuing:
### Prompt Consider the molecule shown here: CC[C@H](C)[C@H](NC(=O)[C@H](Cc1nc2ccc(C(C)C)cc2s1)NC(C)=O)C(N)=O What is its recorded solubility at 24 h?
### Response 1280

====

experimental protocol: Equilibrium aqueous solubility, small-scale shake-flask method
condition info: pH 2.02, aqueous buffer, thermodynamic from solid
Where a SMILES comes first, the peptide text is derived from it. [ ]: non-standard residue; d: D form. Ala(6-iPr-benzothiazol-2-yl) = CC(C)c1ccc2nc(C[C@H](N)C(=O)O)sc2c1
observation type: solubility (µM)
Report as a plain number; the unit µM is understood.

### Prompt Quick one: solubility of CC[C@H](C)[C@H](NC(=O)[C@H](Cc1nc2ccc(C(C)C)cc2s1)NC(C)=O)C(=O)N[C@@H](CCCCN)C(=O)N[C@@H](CC(C)C)C(N)=O [compound 27] (Ac-[Ala(6-iPr-benzothiazol-2-yl)]IKL-NH2) ?
### Response 227

====

The following compounds are listed with their measured solubility values.
experimental protocol: Equilibrium aqueous solubility, small-scale shake-flask method
condition info: pH 7.4, aqueous buffer, thermodynamic from solid
Where a SMILES comes first, the peptide text is derived from it. [ ]: non-standard residue; d: D form. Ala(6-iPr-benzothiazol-2-yl) = CC(C)c1ccc2nc(C[C@H](N)C(=O)O)sc2c1
Please report the result as a number followed by the unit.

### Prompt # input compound: CC[C@H](C)[C@H](NC(=O)[C@H](Cc1nc2ccc(C(C)C)cc2s1)NC(C)=O)C(=O)N[C@@H](CCCCN)C(N)=O [compound 28] ; wanted: its solubility
### Response 7.47 mM

Continue with the compound presented below.
### Prompt Value lookup for solubility; key = CC[C@H](C)[C@H](NC(=O)[C@H](Cc1nc2ccc(C(C)C)cc2s1)NC(C)=O)C(=O)N[C@@H](CCCCN)C(=O)N[C@@H](CC(C)C)C(N)=O [compound 27] (Ac-[Ala(6-iPr-benzothiazol-2-yl)]IKL-NH2)
### Response 0.031 mM

====

experimental protocol: Equilibrium aqueous solubility, small-scale shake-flask method
condition info: Britton-Robinson buffer, pH 2, aqueous buffer, thermodynamic from solid
observation type: solubility at 24 h

### Prompt Given CCC(=O)N[C@@H](Cc1nc2ccc(C(C)C)cc2s1)C(=O)N[C@H](CNC(=O)CCN1CCOCC1)C1CCCCC1 [DI-591] , state its recorded solubility at 24 h.
### Response > 20 mM

Further cases:
### Prompt For the compound CC[C@H](C)[C@@H](CN)NC(=O)[C@H](Cc1nc2ccc(C(C)C)cc2s1)NC(C)=O [compound 30] , what solubility at 24 h is on record?
### Response > 20 mM

====

Where a SMILES comes first, the peptide text is derived from it. [ ]: non-standard residue; d: D form. Ala(6-iPr-benzothiazol-2-yl) = CC(C)c1ccc2nc(C[C@H](N)C(=O)O)sc2c1
The listing below reports pKi for compounds tested on DCN1 (Homo sapiens, UniProt Q96GG9).
Please report pKi as the negative decimal logarithm of the molar concentration, giving only the number.

Some solved entries appear below for comparison.
### Prompt # lookup: pKi of CC[C@H](C)[C@@H](CN)NC(=O)[C@@H](N)Cc1nc2ccc(C(C)C)cc2s1
### Response 4.17

### Prompt What do you have for CC[C@H](C)[C@H](NC(=O)[C@H](Cc1nc2ccc(C(C)C)cc2s1)NC(C)=O)C(=O)N[C@@H](CCCCN)C(=O)N[C@@H](CC(C)C)C(N)=O [compound 27] (Ac-[Ala(6-iPr-benzothiazol-2-yl)]IKL-NH2) ?
### Response 8.33

### Prompt What do you have for CCC(=O)N[C@@H](Cc1nc2ccc(C(C)C)cc2s1)C(=O)N[C@@H](C)CN ?
### Response 5.12

### Prompt Input CCC(=O)N[C@@H](Cc1nc2ccc(C(C)C)cc2s1)C(=O)N[C@H](CN)Cc1ccccc1
### Response 7.10

### Prompt Try the compound CCC(=O)N[C@@H](Cc1nc2ccc(C(C)C)cc2s1)C(=O)NCCN
### Response 4.49

Next:
### Prompt Item under review: CC[C@H](C)[C@H](NC(=O)[C@H](Cc1nc2ccc(C(C)C)cc2s1)NC(C)=O)C(N)=O . Reported pKi?
### Response 6.53

### Prompt What would you report for CCC(=O)N[C@@H](Cc1nc2ccc(C(C)C)cc2s1)C(=O)N[C@H](CN(C)C)C1CCCCC1 ?
### Response 7.77

### Prompt Here is the next compound: CCC(=O)N[C@@H](Cc1nc2ccc(C(C)C)cc2s1)C(=O)N[C@H](CN)[C@@H](C)CC
### Response 7.72

### Prompt Can you check CC[C@H](C)[C@@H](CN)NC(=O)[C@H](Cc1nc2ccc(C(C)C)cc2s1)NC(=O)NC next?
### Response 6.83

### Prompt Also, CC[C@H](C)[C@H](NC(=O)[C@H](Cc1c[nH]c2ccccc12)NC(C)=O)C(=O)N[C@@H](CCCCN)C(=O)N[C@@H](CC(C)C)C(N)=O [compound 21] (Ac-WIKL-NH2) please.
### Response 4.09

### Prompt Also CCC(=O)N[C@@H](Cc1nc2ccc(C(C)C)cc2s1)C(=O)N[C@H](CN)C1CCCCC1 ?
### Response 7.89

### Prompt What do we get for CC[C@H](C)[C@H](NC(=O)[C@H](CCSC)NC(C)=O)C(=O)N[C@@H](CCCCN)C(=O)N[C@@H](CC(C)C)C(N)=O [compound 9] (Ac-MIKL-NH2) ?
### Response 4.30

====

target under test: DCN2 (Homo sapiens, UniProt Q6PH85)
Sequence (Q6PH85 62-259): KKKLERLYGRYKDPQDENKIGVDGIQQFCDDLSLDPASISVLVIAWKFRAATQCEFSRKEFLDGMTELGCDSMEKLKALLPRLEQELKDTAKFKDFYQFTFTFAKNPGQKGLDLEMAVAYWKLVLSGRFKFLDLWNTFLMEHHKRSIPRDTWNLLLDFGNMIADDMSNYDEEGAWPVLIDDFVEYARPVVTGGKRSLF
observation type: Ki
Please report the result as a number followed by the unit.

### Prompt Using the record for CCC(=O)NC(Cc1nc2ccc(C(C)C)cc2s1)C(=O)NC(CNC(=O)C1CCN(CCOCCOCCOCCNC(=O)CCCCC2SCC3NC(=O)NC32)CC1)C1CCCCC1 (stereo not shown) [compound 47] , report its Ki.
### Response 3.9 nM

====

condition info: pH 7.4, aqueous buffer, thermodynamic from solid
Where a SMILES comes first, the peptide text is derived from it. [ ]: non-standard residue; d: D form. Ala(benzothiazol-2-yl) = N[C@@H](Cc1nc2ccccc2s1)C(=O)O
observation type: solubility (µM)
Provide the reading as a plain figure in µM.

### Prompt So what's the measured solubility for this one? CC[C@H](C)[C@H](NC(=O)[C@H](Cc1nc2ccccc2s1)NC(C)=O)C(=O)N[C@@H](CCCCN)C(=O)N[C@@H](CC(C)C)C(N)=O [compound 24] (Ac-[Ala(benzothiazol-2-yl)]IKL-NH2)
### Response 251

====

condition info: pH 2.02, aqueous buffer, thermodynamic from solid
Where a SMILES comes first, the peptide text is derived from it. [ ]: non-standard residue; d: D form. Ala(benzothiazol-2-yl) = N[C@@H](Cc1nc2ccccc2s1)C(=O)O
observation type: solubility
Just the number plus its unit, please.

### Prompt Any idea what solubility was measured for CC[C@H](C)[C@H](NC(=O)[C@H](Cc1nc2ccccc2s1)NC(C)=O)C(=O)N[C@@H](CCCCN)C(=O)N[C@@H](CC(C)C)C(N)=O [compound 24] (Ac-[Ala(benzothiazol-2-yl)]IKL-NH2) ?
### Response 1480 µM

====

Catalogue of solubility at 24 h values
experimental protocol: Equilibrium aqueous solubility, small-scale shake-flask method
condition info: Britton-Robinson buffer, pH 2.02, aqueous buffer, thermodynamic from solid
# value in mM; strip the unit string

### Prompt Find the recorded solubility at 24 h belonging to CCC(=O)N[C@@H](Cc1nc2ccc(C(C)C)cc2s1)C(=O)N[C@H](CN)C1CCCCC1 and report it.
### Response 4.75

Here is another compound to look at.
### Prompt I am curious: what solubility at 24 h value has been reported for CC[C@H](C)[C@H](NC(=O)[C@H](Cc1nc2ccc(C(C)C)cc2s1)NC(C)=O)C(N)=O ?
### Response 1.05

This collection of values is drawn from paper PMC5658359.
